Just for reference, patent US8853172B2 is where these values come from.

Test system: Turnip mosaic virus
EXPERIMENT: Experiment II: preventive test, spraying before inoculation of Arabidopsis thaliana with Turnip mosaic virus (inoculation solution C)
Assay type: in vivo
MEASUREMENT_CONTEXT: Arabidopsis thaliana (Columbia), ten columns inoculated, 20 mM sprayed on the 3rd and 1st day before inoculation, observed on the 16th day
METRIC: columns that were healthy

O=C1O[C@H]([C@@H](O)CO)C([O-])=C1OP(=O)([O-])[O-].[Na+].[Na+].[Na+] [ascorbic acid 2-phosphate ester 3-sodium]    ten
O=C1O[C@H]([C@@H](O)CO)C(O)=C1O[C@H]1O[C@H](CO)[C@@H](O)[C@H](O)[C@H]1O [ascorbic acid 2-glucoside]    nine
O=C1O[C@H]([C@@H](O)CO)C([O-])=C1O.[Na+] [sodium ascorbate]    seven
O=C1O[C@H]([C@@H](O)CO)C(O)=C1O [ascorbic acid, reference compound]    eight
